meta.source: the supplement of paper PMC12764529

- procedure_text: folding stability dG unfold (combined trypsin and chymotrypsin); higher = more stable

{"chain": "SAGGSAGGSVKELAKKAGIKDIDVEPHPNDGWVEIKITMKNPKNGKKREGNILIRDPKDGEPLSAGGSAGGS [r12_133_TrROS]", "uom": "kcal/mol", "result_modifier": "<", "folding stability dG unfold": -1}
{"chain": "SAGGSPKAREERFEKTLPDGTVVPVTLTRLPDGTVRVETTTYTYNSPEPVASTSTTTLPEAEVAAALSAGGS [r16_470_JUSTAS]", "uom": "kcal/mol", "result_modifier": "=", "folding stability dG unfold": 0.686}
{"chain": "SAGGSAMYKVEVTATTSSSSTPYPLEMDFETEEEAKERVKKYLEEKYGDPISSIETKIEPVEPGLESAGGSA [r15_670_JUSTAS]", "uom": "kcal/mol", "result_modifier": "=", "folding stability dG unfold": -0.234}
{"chain": "SAGGSAGGSAKVTYTENSVTIHAKVPEKPLKIEIPNTGKVVTIDLDKEVTVTFPVPKPPDESAGGSAGGSAG [r3_185_TrMRF]", "uom": "kcal/mol", "result_modifier": "=", "folding stability dG unfold": -0.624}
{"chain": "SAHTISIRIPPNMKPITAEELKKEPGYEVKDINVYPNEDGNMYFTIEVEPGMPPKKMDEILERIRDRMGSAG [r14_421_TrROS]", "uom": "kcal/mol", "result_modifier": "=", "folding stability dG unfold": 0.862}
{"chain": "SAGGSAGGSAGGSTITLRIEGLSKEEIEELARKLGAKVVSFDEKNKTVTIELPPGAKLLSAGGSAGGSAGGS [r4_3_TrROS_Hall]", "uom": "kcal/mol", "result_modifier": "=", "folding stability dG unfold": 2.09}
{"chain": "SAGGSAGGSMIEVVKFPNGITLEYFPETNTYRAFNPSTNTTTTFPPGVSFEEAVEAVKKGNLVSAGGSAGGS [r12_832_JUSTAS]", "uom": "kcal/mol", "result_modifier": "=", "folding stability dG unfold": 3.88}
